- Tested on: IGROV1 ovarian
- TEST METHOD NOTES: NCI-60 one-dose screen, 48 h (100 = growth as untreated, 0 = no growth, -100 = all killed)
- PARTICULARS: 10 µM unless noted
Compounds without any hit were thinned out: in the full panel of roughly 83,000, 20% have a hit.
MEASUREMENT LABEL: growth (%)
Answer format: numeric, % implied, no suffix.

Below, 2 molecules whose answers are already recorded.
MOLECULE | MEASUREMENT LABEL | NUMBER
O=C1Nc2ccc(F)cc2/C1=C\c1c(-c2ccccc2)nc2ccccn12 | growth | 47.6
O=S(=O)(NCCNc1nccc(-c2c(-c3cccc(F)c3)nc3sccn23)n1)c1ccccc1 | growth | 4.9

Query :: Which growth reading was recorded for the molecule COc1cc(NC(=O)CSc2nc3ccc(C)cc3c(=O)n2Cc2ccccc2)cc(OC)c1OC ?
Result :: 74.3

Query :: Then what about the molecule CCCCNC(=O)Oc1ccc(/C(=C(\C)c2ccccc2)c2ccc(OCCN3CCCCC3)cc2)cc1 ?
Result :: 76.9

Query :: Then what about the molecule CNCCn1c(=O)c2cc(OC)c(OC)cc2c2ccc3cc4c(cc3c21)OCO4 ?
Result :: 0.994

Query :: Then what about the molecule NNC(=O)c1ccc(-n2nc(-c3ccccc3)c3ccccc32)cc1 ?
Result :: 73.7

Query :: Then what about the molecule COc1ccc(/C=C/c2nc(Nc3ccc(Cl)cc3)c3ccccc3n2)cc1 ?
Result :: 75.9

Query :: Then what about the molecule O=C(/C=C/c1c(-c2ccc(Cl)cc2)nn(-c2ccccc2)c1C(F)(F)F)c1ccc(Cl)cc1 ?
Result :: 102

Query :: Then what about the molecule CC(C)(C)CC(C)(C)n1nnnc1C(NC12CC3CC(CC(C3)C1)C2)c1ccccc1 (centres undefined) ?
Result :: 87.1

###

Listed next: entries and their corresponding growth.
- System: SF-295 CNS
- TEST METHOD NOTES: NCI-60 one-dose screen, 48 h (100 = growth as untreated, 0 = no growth, -100 = all killed)
- PARTICULARS: 10 µM unless noted
About 83,000 compounds went through this panel and 20% of them were active in at least one assay; those are over-represented in the sample as a whole. Active and inactive are the calls of the source. Rule for the calls: active = growth percent below 10; inactive = the rest.

Below, 3 compounds whose answers are already recorded.
COMPOUND | growth
CC(C)=CCC[C@](C)(O)[C@H]1CC[C@]2(C)[C@@H]1CC[C@@H]1[C@@]3(C)C/C(=C/c4ccccc4)C(=O)C(C)(C)[C@@H]3CC[C@]12C | 109% (inactive)
O=C(NCCNc1nccc(-c2c(-c3cccc(F)c3)nc3sccn23)n1)c1ccc(Cl)cc1 | 73.8% (inactive)
N#CC(C(=O)/C(=N/NC(=O)c1ccccc1O)C(C#N)c1ccccc1)c1ccccc1 (centres undefined) | 101% (inactive)

Query :: Request - read-out growth | tested on SF-295 CNS | compound O=C(CCN1CCCC1)Nc1ccc2c(NCCc3ccccc3)c3ccccc3nc2c1
Result :: -2.88% (active)

Query :: Then what about the compound c1ccc(Cn2cnc3ccc(-c4nc(-c5ccc6c(c5)ncn6C5CCCCC5)cn5ccnc45)cc32)cc1 ?
Result :: -81.4% (active)

Query :: Then what about the compound OCc1cnc2ccccc2c1NC1CCCCCC1 ?
Result :: 86.4% (inactive)

Query :: Then what about the compound [O-][n+]1c(Cl)cc(Cl)c2ccccc21 ?
Result :: 103% (inactive)

Query :: Then what about the compound CCOC(=O)c1cc(C(=O)c2ccc(Br)cc2)n2ccc(/C=C/c3cc[n+](CC(=O)c4ccc(OC)cc4)cc3)cc12 ?
Result :: 103% (inactive)

Query :: Then what about the compound OC(c1ccc(F)c(C(F)(F)F)c1)c1cnccc1NC1CCCCC1 (centres undefined) ?
Result :: 74.1% (inactive)

###

- Tested on: HS 578T breast
- TEST METHOD NOTES: NCI-60 one-dose screen, 48 h
- PARTICULARS: 10 µM unless noted
Compounds without any hit were thinned out: in the full panel of roughly 83,000, 20% have a hit. Calls of active or inactive are those of the source. Rule for the calls: active = growth percent below 10; inactive = the rest.
Answer with one of the outcomes T = active, F = inactive

MOLECULE | MEASURED ON | LABEL VALUE
COc1ccc(C/C(=C(\C)c2ccc(OCCN3CCCC3)cc2)c2ccc(OCCN3CCCC3)cc2)cc1 | HS 578T breast | F
COc1ccc(C(=O)CSc2nc(-c3cc(OC)ccc3OC)cc(-c3ccc(Cl)cc3)c2C#N)cc1 | HS 578T breast | F
O=[N+]([O-])c1ccc(NC(=S)N/N=C/c2cc3ccccc3n3nnnc23)cc1 | HS 578T breast | F
COc1cc2c(c(O)c1Br)C(=O)c1c(O)cc(C[C@H](C)O)cc1[C@H]2[C@H]1c2cc(C[C@H](C)O)cc(O)c2C(=O)c2c1cc(OC)c(Br)c2O | HS 578T breast | T
O=C(CCN1CCCC1)Nc1ccc2c(NCCCCc3ccccc3)c3ccccc3nc2c1 | HS 578T breast | T
Cn1ccnc1C(=O)/C=C/c1ccc(CC(=O)Nc2ccc(Cl)cc2)cc1 | HS 578T breast | T
O=C(CCN1CCCC1)Nc1ccc2c(Nc3ccc(Br)cc3)c3ccccc3nc2c1 | HS 578T breast | F
COc1cc(-c2cc(-c3ccc(N(C)C)cc3)nc(N3CCOCC3)c2C#N)cc(OC)c1OC | HS 578T breast | F

Query :: Could you check what this test reported for Clc1ccc(-c2ccc(CNCC3CCNCC3)o2)c(-c2ccccc2)c1 ?
Result :: T

Query :: Then what about the molecule N/C(=N\C(N)=N\c1nc2ccccc2s1)c1cccc(Cl)c1 ?
Result :: F

Query :: Then what about the molecule Cc1c(C)c([N+](=O)[O-])c(C)c([N+](=O)[O-])c1C ?
Result :: F

Query :: Then what about the molecule COc1cc2oc(-c3cccc(C(=O)Nc4ccc(Cl)cc4)c3)cc(=O)c2c(O)c1OC ?
Result :: T

###

Listed next: entries and their corresponding growth.
- Test system: PC-3 prostate
- TEST METHOD NOTES: NCI-60 one-dose screen, 48 h (100 = growth as untreated, 0 = no growth, -100 = all killed)
- PARTICULARS: 10 µM unless noted
Compounds without any hit were thinned out: in the full panel of roughly 83,000, 20% have a hit.
Answer format: numeric, % implied, no suffix.

MOLECULE | UNIT ABBREV | growth
N#C/C(=C\c1cccc(C#N)c1)c1ccccc1 | % | 99.7
O=S(=O)(Nc1ccc(-n2cnc3cc(-c4ccc(O)cc4)ccc32)cc1)c1ccccc1 | % | 90.7
COc1ccc(-c2[nH][nH]c(=O)c2-c2nc3ccccc3s2)cc1 | % | 102
c1ccc2c(-c3c[nH]c4ccccc34)c3c(cc2c1)[nH]c1ccccc13 | % | 69.9

Please look at the following compound next.
Query :: Which growth reading was recorded for the compound CCOC(=O)c1ccc2c(c1)ncn2-c1ccc(NC(=O)Nc2cccc(C)c2)cc1 ?
Result :: 67.4

###

- Tested on: NCI-H460 lung
- TEST METHOD NOTES: NCI-60 one-dose screen, 48 h (100 = growth as untreated, 0 = no growth, -100 = all killed)
- PARTICULARS: 10 µM unless noted
Compounds without any hit were thinned out: in the full panel of roughly 83,000, 20% have a hit.
MEASUREMENT LABEL: growth (%)
Answer format: numeric, % implied, no suffix.

Below, 4 compounds whose answers are already recorded.
MOLECULE | MEASUREMENT LABEL | NUMBER
O=C(NO)c1ccc(-n2nc(-c3ccccc3)c3ccccc32)cc1 | growth | 26.6
c1ccc(-c2cn3c(ccc4ccccc43)n2)cc1 | growth | 20.6
Cc1cc2c(c(C)c1Cl)C(=O)/C(=C/c1ccc(O)c(O)c1)O2 | growth | 99.9
CC(C)(C)c1ccc(NS(=O)(=O)c2ccc3nc(NC(=O)c4cnccn4)[nH]c3c2)cc1 | growth | 6.16

Please look at the following compound next.
Query :: Which growth reading was recorded for the compound COc1cc2nc(-c3ccc(C(F)(F)F)cc3)cc(OCCCN3CCOCC3)c2cc1OC ?
Result :: 18.5

###

- Tested on: SW-620 colon
- TEST METHOD NOTES: NCI-60 one-dose screen, 48 h (100 = growth as untreated, 0 = no growth, -100 = all killed)
- PARTICULARS: 10 µM unless noted
Compounds without any hit were thinned out: in the full panel of roughly 83,000, 20% have a hit.
Listed next: entries and their corresponding growth.
Answer format: numeric, % implied, no suffix.

COMPOUND | MEASURED ON | growth, %
CC(=O)N1c2ccccc2NC2=C(C(=O)NC2(C)C)C1c1ccco1 (stereo not given) | SW-620 colon | 81.1
[O-][n+]1c(Cl)cc(Cl)c2ccccc21 | SW-620 colon | 107
COc1cc(CC(=O)n2ncc3ccc(N)cc32)cc(OC)c1OC | SW-620 colon | 104
C=C1C(=O)O[C@H]2[C@H]1CC/C(CNC(=O)/C=C/c1ccccc1)=C\CC[C@@]1(C)O[C@@H]21 | SW-620 colon | -68.4
COc1cc2nc(-c3ccc(C(F)(F)F)cc3)cc(OCCCN3CCOCC3)c2cc1OC | SW-620 colon | 25.9

Query :: Which growth reading was recorded for the compound Cc1ccc(NS(=O)(=O)c2ccc(-c3cnc(C4CC4)o3)cc2)cc1C(F)(F)F ?
Result :: 37.2

Query :: Then what about the compound COc1cc(NC(C)CCCNC(=O)CCC(=O)NCCCNCCCCCCCCNCCCNC(=O)CCC(=O)NCCCC(C)Nc2cc(OC)cc3cccnc23)c2ncccc2c1 (stereo not given) ?
Result :: 78

Query :: Then what about the compound O=Cc1cc2ccccc2nc1Oc1ccc(C(F)(F)F)cc1 ?
Result :: 67

Query :: Then what about the compound COc1cc2c(=O)n(CCN)c3c4cc5c(cc4ccc3c2cc1OC)OCO5 ?
Result :: -75.6

Query :: Then what about the compound COc1ccccc1/C(C)=N/NC(=O)CSc1nc2ccccc2c(=O)n1Cc1ccc(S(N)(=O)=O)cc1 ?
Result :: 100

Query :: Then what about the compound CCOC(=O)CCN(CC(C)C)C(=S)Nc1ccccc1 ?
Result :: 107

Query :: Then what about the compound COc1cc(/C=N/NC(=O)c2cnn3c2NC(c2ccccc2)C3)ccc1OCc1ccccc1 (stereo not given) ?
Result :: -1

Query :: Then what about the compound N#C/C(=C\c1c(-c2ccccc2)[nH]c2ccccc12)C(=O)c1ccc(Cl)cc1 ?
Result :: 21.1

Query :: Then what about the compound COc1ccc(C(=O)Cn2c(C(=O)c3ccccc3)nc3ccccc32)cc1 ?
Result :: 10.6

Query :: Then what about the compound O=C(c1nc2ccccc2[nH]1)C1C(c2ccc(Br)cc2)C2CC3CCCC[C@H]3N2[C@@]12C(=O)Nc1cc(Cl)ccc12 (stereo not given in full) ?
Result :: 31.2

Query :: Then what about the compound CCCCCCNC(=O)Nc1ccc2cc3ccc(NC(=O)NCCCCCC)cc3nc2c1 ?
Result :: -78.1

Query :: Then what about the compound Cc1c(C(=O)NCCC(=O)NO)sc2ncnc(Nc3ccc(NC(=O)Nc4cccc(C(F)(F)F)c4)cc3)c12 ?
Result :: 104

Query :: Then what about the compound N#Cc1c(NC(=O)NCc2ccccc2)sc2c1CCCCC2 ?
Result :: 21.5

Query :: Then what about the compound CC(=O)N1N=C(c2ccc(-n3ccc(C(F)(F)F)n3)c(F)c2)CC1c1ccc[nH]1 (stereo not given) ?
Result :: 107

Query :: Then what about the compound COc1ccc(C(=O)C2C(C#N)C(C#N)C3c4ccccc4C=CN23)cc1 (stereo not given) ?
Result :: 99.7
